# TARGET_OF_ASSAY: Human vitronectin receptor (αv β3) (Homo sapiens, UniProt P05106+P06756)
# Construct: Human vitronectin receptor (αv β3) was purified from human placenta; from tissue; host or cells: human placenta
# Sequence (P06756 31-889 limits assumed): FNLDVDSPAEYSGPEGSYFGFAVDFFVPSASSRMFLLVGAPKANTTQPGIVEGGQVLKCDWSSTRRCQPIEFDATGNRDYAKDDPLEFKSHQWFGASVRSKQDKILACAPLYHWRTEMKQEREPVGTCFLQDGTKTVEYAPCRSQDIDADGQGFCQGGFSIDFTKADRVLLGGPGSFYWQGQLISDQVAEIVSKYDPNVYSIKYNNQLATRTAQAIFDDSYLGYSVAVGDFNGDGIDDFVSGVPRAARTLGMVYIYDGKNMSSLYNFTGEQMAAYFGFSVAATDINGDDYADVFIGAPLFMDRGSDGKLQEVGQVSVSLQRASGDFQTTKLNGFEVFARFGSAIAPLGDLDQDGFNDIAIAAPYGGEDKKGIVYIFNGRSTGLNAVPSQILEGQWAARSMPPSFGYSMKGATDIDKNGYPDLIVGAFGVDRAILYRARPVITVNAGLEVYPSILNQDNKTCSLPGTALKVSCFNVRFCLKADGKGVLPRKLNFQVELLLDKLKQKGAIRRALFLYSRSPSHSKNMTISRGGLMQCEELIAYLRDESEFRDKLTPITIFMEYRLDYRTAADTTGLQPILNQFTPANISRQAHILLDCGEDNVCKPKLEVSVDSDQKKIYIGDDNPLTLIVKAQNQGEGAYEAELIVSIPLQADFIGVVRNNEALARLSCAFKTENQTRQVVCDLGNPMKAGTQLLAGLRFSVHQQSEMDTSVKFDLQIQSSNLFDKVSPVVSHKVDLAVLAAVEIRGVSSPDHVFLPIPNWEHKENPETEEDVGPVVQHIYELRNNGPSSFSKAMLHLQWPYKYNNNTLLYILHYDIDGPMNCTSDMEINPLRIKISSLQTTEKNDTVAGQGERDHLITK
# Sequence (P06756 891-1048 limits assumed): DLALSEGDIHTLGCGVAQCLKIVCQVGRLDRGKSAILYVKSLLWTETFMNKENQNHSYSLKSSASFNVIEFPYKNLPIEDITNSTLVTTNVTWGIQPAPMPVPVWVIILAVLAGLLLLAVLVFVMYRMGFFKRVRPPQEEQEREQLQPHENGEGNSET
# Sequence (P05106 27-788): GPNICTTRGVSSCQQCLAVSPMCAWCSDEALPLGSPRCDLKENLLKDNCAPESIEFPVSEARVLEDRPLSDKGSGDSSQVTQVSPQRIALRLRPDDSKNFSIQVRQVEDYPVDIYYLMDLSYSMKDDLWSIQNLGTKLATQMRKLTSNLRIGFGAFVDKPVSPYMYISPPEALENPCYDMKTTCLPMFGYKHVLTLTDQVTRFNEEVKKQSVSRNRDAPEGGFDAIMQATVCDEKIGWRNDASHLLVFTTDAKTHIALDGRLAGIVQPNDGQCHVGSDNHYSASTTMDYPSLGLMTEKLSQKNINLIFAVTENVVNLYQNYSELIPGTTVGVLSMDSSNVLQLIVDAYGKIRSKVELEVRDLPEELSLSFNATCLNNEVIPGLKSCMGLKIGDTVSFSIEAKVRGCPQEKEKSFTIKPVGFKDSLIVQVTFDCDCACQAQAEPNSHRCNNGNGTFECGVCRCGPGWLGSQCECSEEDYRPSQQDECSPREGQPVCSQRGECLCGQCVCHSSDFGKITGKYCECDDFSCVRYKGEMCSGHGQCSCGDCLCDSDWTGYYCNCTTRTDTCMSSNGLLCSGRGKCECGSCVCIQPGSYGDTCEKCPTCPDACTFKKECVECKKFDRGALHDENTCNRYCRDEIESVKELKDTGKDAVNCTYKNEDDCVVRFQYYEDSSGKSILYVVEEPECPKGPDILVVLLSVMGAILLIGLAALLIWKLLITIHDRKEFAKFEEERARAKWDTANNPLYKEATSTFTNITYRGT
# ASSAY_SUMMARY: Vitronectin adhesion assay (solid phase receptor assay, αvβ3)
# Assay type: binding
# DETAILS: inhibition of binding of biotinylated human vitronectin (1 nM) to purified receptor; Table I; read-out: AvB3 IC50
pIC50: −log10 of the molar value. Where a name gives a salt, the structure may show the parent alone.
MEASUREMENT_TYPE: pIC50

Use the examples below as a reference point.
Identify measured pIC50 corresponding to O=C(O)/C=C/c1ccc(/C=C/c2cccc(NC3=NCCCN3)c2)cc1 [Example 98, trifluoroacetate salt]
8.29

Identify measured pIC50 corresponding to N=C(N)Nc1cc(C(=O)Nc2ccc(/C=C/C(=O)O)c(Cl)c2)cc(C(F)(F)F)c1 [Example 54, trifluoroacetate salt]
7.90

Identify measured pIC50 corresponding to N=C(N)Nc1cccc(C(=O)Nc2ccc(/C=C/C(=O)O)c(/C=C/C(=O)O)c2)c1 [Example 42, trifluoroacetate salt]
8.12

Identify measured pIC50 corresponding to N=C(N)Nc1cccc(C(=O)Nc2cc(Cl)c(/C=C/C(=O)O)c(Cl)c2)c1 [Example 29, dihydrochloride dihydrate]
5.74

Identify measured pIC50 corresponding to O=C(O)/C=C/c1cccc(C(=O)CCc2cccc(NC3=NCCCN3)c2)c1 [Example 93, trifluoroacetate salt]
8.21

I: N=C(N)Nc1cccc(C(=O)Nc2ccc(/C=C/C(=O)O)cc2F)c1 [Example 11, trifluoroacetate salt]
II: CCc1cc(/C=C/C(=O)O)ccc1NC(=O)c1cccc(NC2=NCCN2)c1 [Example 21, trifluoroacetate salt]
Compare I and II by numeric pIC50 and name the larger one. State your choice using its label.
II

I: CCOC(=O)Nc1cc(NC(=O)c2cccc(NC3=NCCCN3)c2)ccc1/C=C/C(=O)O [Example 46, trifluoroacetate salt]
II: N=C(N)Nc1cccc(-c2ncc(-c3ccc(/C=C/C(=O)O)cc3)[nH]2)c1 [Example 104, trifluoroacetate salt]
Compare I and II by numeric pIC50 and name the larger one. State your choice using its label.
I
(I: 8.14, II: 4.76)

I: N=C(N)Nc1cc(C(=O)Nc2ccc(/C=C/C(=O)O)cc2)cc(C(F)(F)F)c1 [Example 53, trifluoroacetate salt]
II: N=C(N)Nc1cccc(/C=C/C(=O)c2ccc(F)c(/C=C/C(=O)O)c2)c1 [Example 84, trifluoroacetate salt]
Compare I and II by numeric pIC50 and name the larger one. State your choice using its label.
I

P: N=C(N)Nc1cccc(C(=O)/C=C/c2cccc(/C=C/C(=O)O)c2)c1 [Example 89, trifluoroacetate salt hydrate]
Q: N#Cc1cc(NC(=O)c2cccc(NC(=N)N)c2)ccc1/C=C/C(=O)O [Example 44, trifluoroacetate salt]
R: N=C(N)Nc1cccc(C(=O)CCc2cccc(/C=C/C(=O)O)c2)c1 [Example 91, trifluoroacetate salt hydrate]
S: O=C(O)C=Cc1cc(C(=O)C=Cc2cccc(C3=NCCCN3)c2)ccc1F [Example 85, trifluoroacetate salt]
T: COC(=O)c1cc(NC(=O)c2cccc(NC3=NCCCN3)c2)ccc1/C=C/C(=O)O [Example 40B, trifluoroacetate salt]
Number of compounds to sort: 5. Sort criterion: pIC50, ascending. Sort the labels as requested; that list is your answer.
R, P, S, Q, T
(R: 5.90, P: 6.71, S: 7.04, Q: 7.52, T: 8.24)

P: Cc1cc(NC(=O)c2cccc(NC(=N)N)c2)ccc1/C=C/C(=O)O [Example 33, trifluoroacetate salt]
Q: O=C(O)/C=C/c1cccc(CNC(=O)c2cc(NC3=NCCN3)cc(C(F)(F)F)c2)c1 [Example 71, monohydrochloride hydrate]
Compare pIC50: is it lower for P or for Q ? State your choice using its label.
P

P: O=C(O)/C=C/c1cccc(C(=O)/C=C/c2cccc(NC3=NCCCN3)c2)c1 [Example 90, trifluoroacetate salt]
Q: O=C(O)/C=C/c1ccc2c(c1)CCN2C(=O)c1cccc(NC2=NCCN2)c1 [Example 77, trifluoroacetate salt]
Compare pIC50: is it lower for P or for Q ? State your choice using its label.
Q
(Q: 7.91, P: 8.16)

P: O=C(O)/C=C/c1ccc(NC(=O)c2cccc(NC3=NCCCN3)c2)cc1C(=O)O [Example 40A, trifluoroacetate salt]
Q: O=C(O)/C=C/c1ccc2c(c1)CCN2C(=O)c1cccc(NC2=NCCCN2)c1 [Example 76, trifluoroacetate salt]
R: Cc1cc(/C=C/C(=O)O)cc(Cl)c1NC(=O)c1cccc(NC(=N)N)c1 [Example 15, trifluoroacetate salt]
Number of compounds to sort: 3. Sort criterion: pIC50, ascending. Sort the labels as requested; that list is your answer.
R, Q, P
(R: 7.54, Q: 8.06, P: 9.35)

a: O=C(O)/C=C/c1ccc(/C=C/c2cccc(NC3=NCCN3)c2)cc1 [Example 99, trifluoroacetate salt]
b: O=C(O)/C=C/c1cccc(CNC(=O)c2cc(NC3=NCCCN3)cc(C(F)(F)F)c2)c1 [Example 69, dihydrochloride hydrate]
Compare pIC50: is it lower for a or for b ? State your choice using its label.
a

1: CC(C)COC(=O)N1CCN=C1Nc1cccc(C(=O)NCc2cccc(/C=C/C(=O)O)c2)c1 [Example 65, monohydrochloride hydrate]
2: CNC(=O)c1cc(NC(=O)c2cccc(NC3=NCCCN3)c2)ccc1/C=C/C(=O)O [Example 45, bis(trifluoroacetate) salt]
Compare 1 and 2 by numeric pIC50 and name the larger one. State your choice using its label.
2
(2: 8.17, 1: 7.92)
